# test.target: LdtMt2 (Mycobacterium tuberculosis, UniProt I6Y9J2)
# Construct: gene ldtB
# Sequence (I6Y9J2 35-408): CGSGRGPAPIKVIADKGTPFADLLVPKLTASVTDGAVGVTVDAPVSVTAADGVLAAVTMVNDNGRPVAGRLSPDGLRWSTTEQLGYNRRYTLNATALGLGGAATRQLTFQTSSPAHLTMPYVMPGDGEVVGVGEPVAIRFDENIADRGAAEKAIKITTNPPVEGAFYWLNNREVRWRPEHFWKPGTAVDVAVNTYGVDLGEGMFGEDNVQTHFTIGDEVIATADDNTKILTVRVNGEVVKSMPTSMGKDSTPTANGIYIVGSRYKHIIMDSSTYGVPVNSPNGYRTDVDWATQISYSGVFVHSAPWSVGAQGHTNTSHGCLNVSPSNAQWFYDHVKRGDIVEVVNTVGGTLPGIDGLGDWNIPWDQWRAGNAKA
# experimental.protocol: biochemical
readout: IC50

Record `Clc1ccccn1` : what is its IC50 with LdtMt2 (Mycobacterium tuberculosis, UniProt I6Y9J2)? > 39.8 µM

----------
# test.target: Mtb PBP3 Δ1-122 (Mycobacterium tuberculosis)
# Construct: gene pbpB; N-terminally truncated (residues 1-122 removed), codon-optimised gene in pCold, E. coli BL21(DE3), His tag cleaved with 3C protease, calculated mass 60,148 Da, observed 60,152 Da
# Sequence (L0T911 whole entry, looked up, stated change not applied, the tested form may be a part): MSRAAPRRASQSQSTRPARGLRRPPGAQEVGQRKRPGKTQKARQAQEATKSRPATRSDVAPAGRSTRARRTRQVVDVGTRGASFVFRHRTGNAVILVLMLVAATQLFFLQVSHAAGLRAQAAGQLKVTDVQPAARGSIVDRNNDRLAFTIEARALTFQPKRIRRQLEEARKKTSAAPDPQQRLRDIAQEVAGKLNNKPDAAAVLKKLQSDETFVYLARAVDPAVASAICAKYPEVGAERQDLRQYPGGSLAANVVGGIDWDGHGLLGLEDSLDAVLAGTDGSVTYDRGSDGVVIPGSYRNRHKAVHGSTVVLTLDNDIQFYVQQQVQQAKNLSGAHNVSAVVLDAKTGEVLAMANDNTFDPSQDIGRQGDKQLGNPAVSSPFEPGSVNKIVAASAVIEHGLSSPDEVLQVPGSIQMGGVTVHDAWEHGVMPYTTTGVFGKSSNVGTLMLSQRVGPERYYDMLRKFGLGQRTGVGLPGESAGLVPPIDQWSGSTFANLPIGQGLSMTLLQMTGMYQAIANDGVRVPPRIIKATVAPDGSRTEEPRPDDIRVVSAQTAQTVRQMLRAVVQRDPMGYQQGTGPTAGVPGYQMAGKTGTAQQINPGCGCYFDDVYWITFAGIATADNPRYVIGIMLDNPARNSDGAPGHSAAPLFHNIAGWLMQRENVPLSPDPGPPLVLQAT
# experimental.protocol: biochemical
# Format: biochemical
readout: pIC50
One number for each entry, as −log10 of the molar value.

compound="CC(C)(O/N=C(\\C(=O)N[C@@H]1C(=O)N2C(C(=O)[O-])=C(C[n+]3ccccc3)CS[C@H]12)c1csc(N)n1)C(=O)O [compound 6, ceftazidime]" recorded_number=5.50

Return reported pIC50 values for all items listed beneath this line.
1. C[C@H]1[C@H](NC(=O)/C(=N\OC(C)(C)C(=O)O)c2csc(N)n2)C(=O)N1S(=O)(=O)O [compound 16, aztreonam]
2. CC1(C)S[C@@H]2[C@H](NC(=O)C(C(=O)O)c3ccccc3)C(=O)N2[C@H]1C(=O)O (stereo partly shown) [compound 15, carbenicillin]

[3.80, 5.40]
